TEST_PROTOCOL: refractive index (Na D-line) (dimensionless)
CONDITION_CONTEXT: 298.15 K; 101.33 kPa; Liquid; Standard Abbe refractometry
EXPERIMENTAL_ENDPOINT: refractive index

# SMILES_RECORD, refractive index
rows = [
    ("C=CCCCC", 1.3851),
    ("c1ccsc1", 1.52869),
    ("CC(C)(C)S", 1.42),
    ("CCCS", 1.4353),
    ("CCSCC", 1.43998),
]
